These measurements were taken from the supplement of paper PMC7411054.

Exercise: for every item that follows, state its recorded lowest phenotypically active concentration.
Tested on: A549-TUBA1B-RELA
PROTOCOL_NOTES: lowest phenotypically active concentration; higher = less potent
REPORTED_CONDITIONS: treatment time: 24 h
Structures can show the parent of a compound that is named as a salt.
Answers are plain numbers, in µM.

query: Identify measured lowest phenotypically active concentration associated with C=CC(=O)Nc1cccc(CN2C(=O)N(c3c(Cl)c(OC)cc(OC)c3Cl)Cc3cnc(NCCCCN(CC)CC)nc32)c1 [FIIN 1 hydrochloride]
result: 1

query: Identify measured lowest phenotypically active concentration associated with COc1cc(C(C)=O)ccc1OCCCN1CCC(c2noc3cc(F)ccc23)CC1 [iloperidone]
result: 3

query: Identify measured lowest phenotypically active concentration associated with O=C(O)[C@]1(Cc2cccc(Nc3nccs3)n2)CC[C@@H](Oc2cccc(Cl)c2F)CC1
result: 1

query: Identify measured lowest phenotypically active concentration associated with COc1cc2nc(N3CCN(C(=O)C4COc5ccccc5O4)CC3)nc(N)c2cc1OC (stereo not drawn) [doxazosin]
result: 3

In the following, a different compound is considered.
query: Identify measured lowest phenotypically active concentration associated with Cc1ccc(NC(=O)CCCCCC(=O)Nc2ccccc2N)cc1
result: 3
